- STUDY SYSTEM: Tubulin alpha chain (Sus scrofa)
- MEASUREMENT PROTOCOL: Inhibition of tubulin polymerization. (ITP)
pIC50: −log10 of the molar value.
READOUT: pIC50

Example entries and their recorded answers appear below.
O=c1[nH]c(/C=C/c2ccccc2)nc2ccccc12; 5.30
O=C(O)COc1cc(-c2ccccc2F)nc2cc3c(cc12)OCO3; < 4.70
CCOC(=O)COc1cc(-c2ccccc2F)nc2cc3c(cc12)OCO3; < 4.40
O=C(O)CCCOc1cc(-c2ccccc2F)nc2cc3c(cc12)OCO3; 4.92
Cn1c(-c2ccccc2)cc(=O)c2ccccc21; < 4.40

QUERY: pIC50 for "CCOC(=O)CCCOc1cc(-c2ccccc2F)nc2cc3c(cc12)OCO3" ?
RESULT: < 4.40

====

- Test system: SF-268
- MEASUREMENT PROTOCOL: Inhibition of in vitro tumor cell growth of SF-268, CNS tumor cell line
- Type: functional
- DETAILS: Homo sapiens
READOUT: GI50 (µM)
Give bare numbers, in µM.

Fc1ccccc1-c1cc(S)c2cc3c(cc2n1)OCO3; 20

QUERY: Find GI50 (SF-268) for the entry "O=c1cc(-c2ccccc2F)[nH]c2ccc(N3CCCC3)cc12"
RESULT: 0.0389

====

- STUDY SYSTEM: UniProt P02550
- MEASUREMENT PROTOCOL: Inhibition of tubulin polymerization. (ITP)
READOUT: IC50 (nM)
Give bare numbers, in nM.

QUERY: Find the recorded IC50 belonging to "O=c1cc(-c2ccccc2F)[nH]c2ccc(N3CCCC3)cc12" and report it.
RESULT: 460

====

- STUDY SYSTEM: Tubulin alpha chain (Sus scrofa, UniProt P02550)
- Sequence (P02550 whole entry, looked up): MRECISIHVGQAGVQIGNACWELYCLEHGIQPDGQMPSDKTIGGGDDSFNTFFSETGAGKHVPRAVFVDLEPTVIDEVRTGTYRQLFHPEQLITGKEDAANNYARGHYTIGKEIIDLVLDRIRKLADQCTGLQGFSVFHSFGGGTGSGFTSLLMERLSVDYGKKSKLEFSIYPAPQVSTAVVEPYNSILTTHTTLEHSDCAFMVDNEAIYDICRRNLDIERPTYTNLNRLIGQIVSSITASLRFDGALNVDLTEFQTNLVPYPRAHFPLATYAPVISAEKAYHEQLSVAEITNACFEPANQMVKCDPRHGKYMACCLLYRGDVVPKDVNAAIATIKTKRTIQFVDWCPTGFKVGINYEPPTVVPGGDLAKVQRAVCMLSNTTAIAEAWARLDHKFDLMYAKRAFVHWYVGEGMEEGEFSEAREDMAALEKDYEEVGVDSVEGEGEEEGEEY
- MEASUREMENT PROTOCOL: Inhibition of tubulin polymerization (ITP)
READOUT: IC50 (µM)
Answers are plain numbers, in µM.

O=c1cc(-c2ccccc2F)[nH]c2cc3c(cc12)OCO3; 0.68

QUERY: Which IC50 reading was recorded for the molecule "Oc1cc(-c2ccccc2)nc2ccccc12" ?
RESULT: 7.3

====

- System: SF-268
- MEASUREMENT PROTOCOL: Inhibition of in vitro tumor cell growth of SF-268, CNS tumor cell line
- Type: functional
- DETAILS: Homo sapiens
READOUT: GI50

Go through the list and state GI50 for each entry.
1. CCOC(=O)COc1cc(-c2ccccc2F)nc2cc3c(cc12)OCO3
2. CCOC(=O)CCCOc1cc(-c2ccccc2F)nc2cc3c(cc12)OCO3
3. O=C(O)COc1cc(-c2ccccc2F)nc2cc3c(cc12)OCO3

RESULT:
["> 100 µM", "> 100 µM", "> 100 µM"]

Data credit: ChEMBL document CHEMBL1134685
